# System: SN12C renal
# experiment-description: NCI-60 one-dose screen, 48 h
# stated-conditions: 10 µM unless noted
The panel holds about 83,000 compounds, 20% with a hit somewhere; the sample as a whole holds those more often. Active and inactive are the calls of the source. Rule for the calls: active = growth percent below 10; inactive = the rest.
Write down the outcome that applies. Available outcomes: yes = active, no = inactive

input_smiles=O=C(COc1ccc(/C=C2\CSc3ccccc3C2=O)cc1)Nc1nccs1 category=no
input_smiles=Cc1cc(NS(=O)(=O)c2ccc(-c3cnc(C4CC4)o3)cc2)ccc1Cl category=no
input_smiles=COc1cccc(/C=N/NC(=O)c2ccccc2Nc2ccnc(C(F)(F)F)c2)c1O category=no
input_smiles=COc1ccc(-n2nc(C)c3c(Nc4ccc(NC(=O)Nc5ccc(Cl)c(C(F)(F)F)c5)cc4)ncnc32)cc1 category=yes

Read the next record carefully.
Ask: # outcome recorded in this test, key = COc1ccc(O)c(N=Nc2nccs2)c1
Result: no
